cell viability values for the compounds below.
System: P12-Ichikawa
Assay: cell viability relative to DMSO control; higher = less cytotoxic
Conditions: HPLM + 10% dialyzed FBS; 48 h; 15.4 µM
Record the value in %, omitting the unit from your answer.

Reference set, count: 2
Cc1nnc(C(C)C)n1[C@@H]1C[C@H]2CC[C@@H](C1)N2CC[C@H](NC(=O)C1CCC(F)(F)CC1)c1ccccc1; 89.1
Cc1nc(-c2ccc(-c3ccc(C(=O)N4CCc5cc6c(cc54)C4(CCN(C)CC4)CO6)cc3)c(C)c2)no1; 119

// next entry
[ask] Return reported cell viability. Input compound: `CC(C)[C@H](C(=O)Nc1ccc(C(=O)NO)cc1)c1ccccc1`
[reply] 5.55

====

Parameter cell viability: see the listing below.
Test system: SEM cells
Test: cell viability relative to DMSO control; higher = less cytotoxic
Details: RPMI 5 mM glucose + 10% dialyzed FBS; 48 h; 0.0211 µM
Field: numeric (%). Do not append units.

These solved cases illustrate the format of a correct answer.
CCCC[S+](=N)([O-])CCC(N)C(=O)O (centres undefined); 122
COCC(=O)NC/C=C/c1ccc2ncnc(Nc3ccc(Oc4ccc(C)nc4)c(C)c3)c2c1; 95.6
N#CC1(c2cccc(C(=O)Nc3cc(Oc4ccc5nc(NC(=O)C6CC6)sc5n4)ccc3F)c2Cl)CC1; 105
CCn1c(C(=O)N(C2CC2)C2CC2)cc2c3c(ncn3C)c(Nc3cc(C)n(C)n3)nc21; 107
Cc1nnc(C(=O)NC(C)(C)c2nc(C(=O)NCc3ccc(F)cc3)c(O)c(=O)n2C)o1; 122
C#CCC(Cc1cnc2nc(N)nc(N)c2n1)c1ccc(C(=O)N[C@@H](CCC(=O)O)C(=O)O)cc1 (some centres undefined); 107

[ask] Please look at this molecule and report its cell viability: `CC1=CC/2=C(C=C1C)N(C[C@@H](O)[C@@H](O)[C@@H](O)CO)C/3=N/C(=O)NC(=O)C3=N2`
[reply] 106

[ask] Assign cell viability to the following record: `C/C1=C/C(=C(/CNC(=O)C2=CC(=CC3=C2C=N[N]3C4CCCC4)C5=CC=C(CN6CCOCC6)C=C5)C(=O)N1)C`
[reply] 22.7

[ask] Look up cell viability of `CCC(=O)NC[C@H](Cc1ccc(OCCc2nc(-c3ccccc3)oc2C)cc1)N/C(C)=C\C(=O)c1ccc(C(F)(F)F)cc1` and report it.
[reply] 118

[ask] State, in one line, measured cell viability of `C[C@@H]1CC[C@@]2(CC[C@]3(C)\C(=C/C[C@@H]4[C@@]5(C)C[C@@H](O)[C@H](O)[C@@](C)(CO)[C@@H]5CC[C@@]34C)[C@@H]2[C@H]1C)C(O)=O`
[reply] 96

[ask] Look up cell viability of `Nc1nccc(-c2ccc3noc(-c4ccc(Cl)cc4)c3c2)n1` and report it.
[reply] 119

====

As shown below, each of these molecules has a reported cell viability value.
Test system: P12-Ichikawa
Assay: cell viability relative to DMSO control; higher = less cytotoxic
Conditions: RPMI 5 mM glucose + 10% FBS; 48 h; 15.4 µM
# number only, unit % dropped from output

CC(C)(C)[C@]1(O)C[C@@H]2OC(=O)C[C@@]23C(=O)O[C@@H]2OC(=O)[C@H](O)C213 (stereo partly specified); 108
CC1(C)CCC(C)(C)c2cc(NC(=O)c3ccc(C(=O)O)cc3)ccc21; 98.9
CN(C)CCc1c[nH]c2ccc(Cn3cncn3)cc12; 6.52

[ask] Query cell viability for `COc1cccc(N(C)C(=S)Oc2ccc3c(c2)CCCC3)n1`
[reply] 95.6

[ask] Return cell viability (reported value) for this molecule: `CN(C)C(=O)[C@H](O)[C@H](Cc1ccccc1)NC(=O)c1cc2cc(Cl)ccc2[nH]1`
[reply] 68.6

[ask] Tell us which cell viability value is on record for `CC(C)C[C@H](CC(=O)O)C(=O)N[C@@H](Cc1c[nH]c2ccccc12)C(=O)N[C@@H](C)c1ccccc1`
[reply] 53.4

[ask] Identify the reported cell viability for the following entry. Clc1ccc(C(c2ccccc2Cl)C(Cl)Cl)cc1 (stereo unspecified)
[reply] 103

[ask] Please indicate cell viability recorded for `C[C@H](NC(=O)[C@@H](O)c1cc(F)cc(F)c1)C(=O)N[C@@H]1C(=O)N(C)c2ccccc2-c2ccccc21`
[reply] 101

[ask] Return cell viability (reported value) for this molecule: `COC(=O)CCC1=C(C)C2=CC3=NC(=CC4=C(C)C(=C([NH]4)C=C\5N=C(C=C1[NH]2)\C(=C5C)CCC(O)=O)C=C)\C6=C\C=C(/[C@@H](C(=O)OC)[C@@]36C)C(=O)OC`
[reply] 77.1

[ask] Output cell viability of `CCn1c(C(=O)N(C2CC2)C2CC2)cc2c3c(ncn3C)c(Nc3cc(C)n(C)n3)nc21`
[reply] 112

[ask] Return value of cell viability for input `O=C(Nc1ccccc1)Nc1ccc(-c2ccc(C(=O)[C@@H]3CCC[C@H]3C(=O)O)cc2)cc1` , no commentary.
[reply] 73

[ask] Answer with the recorded cell viability for the molecule listed here: `CCCCCN(C)CCC(O)(P(=O)([O-])O)P(=O)(O)O`
[reply] 92.6

[ask] Given the molecule `Cc1nnc(C(C)C)n1[C@@H]1C[C@H]2CC[C@@H](C1)N2CC[C@H](NC(=O)C1CCC(F)(F)CC1)c1ccccc1` , write its reported cell viability.
[reply] 92

[ask] Consider the molecule `N#Cc1cc(NC(=O)Nc2nnc(-c3ccncc3)s2)ccc1-c1cn[nH]c1` . State its measured cell viability.
[reply] 112

[ask] Quick one: give measured cell viability for `Nc1cc(N2CCCCC2)nc(N)[n+]1[O-]`
[reply] 134

[ask] Annotate the molecule `C[C@@H]1CC[C@@]2(CC[C@]3(C)\C(=C/C[C@@H]4[C@@]5(C)C[C@@H](O)[C@H](O)[C@@](C)(CO)[C@@H]5CC[C@@]34C)[C@@H]2[C@H]1C)C(O)=O` with its measured cell viability.
[reply] 119

====

System: NOMO1
Assay: cell viability relative to DMSO control; higher = less cytotoxic
Settings: HPLM + 10% dialyzed FBS; 48 h; 0.569 µM
readout.kind: cell viability (%)
Supply the numeric figure in %, leaving out any unit text.

Worked examples follow.
O=C(NOCC1CC1)c1ccc(F)c(F)c1Nc1ccc(I)cc1Cl; 74.7
CC(C)(C)NCC(O)c1ccc(O)c(CO)c1 (stereo unspecified); 107
Cc1nnc(C(C)C)n1[C@@H]1C[C@H]2CC[C@@H](C1)N2CC[C@H](NC(=O)C1CCC(F)(F)CC1)c1ccccc1; 107

[ask] Determine its reported cell viability: CCN(CC)CCCC(C)Nc1ccnc2cc(Cl)ccc12 (stereo unspecified)
[reply] 104

[ask] Give the measured cell viability for `N#Cc1c(N(CC(=O)[O-])CC(=O)[O-])sc(C(=O)[O-])c1CC(=O)[O-].O.O.O.O.O.O.O.[Sr+2].[Sr+2]`
[reply] 148

[ask] Kindly indicate its recorded cell viability. Item: `CCCCN1CCC(CNC(=O)c2c3n(c4ccccc24)CCCO3)CC1`
[reply] 132

[ask] Annotate the compound `CCC(=O)NC[C@H](Cc1ccc(OCCc2nc(-c3ccccc3)oc2C)cc1)N/C(C)=C\C(=O)c1ccc(C(F)(F)F)cc1` with its measured cell viability.
[reply] 96.3

[ask] For the compound CCCC[S+](=N)([O-])CCC(N)C(=O)O (stereo unspecified) , give its measured cell viability value.
[reply] 150

[ask] Identify cell viability associated with the compound `O=C(Nc1cccnc1)N1CCC(Cc2cccc(Oc3ccc(C(F)(F)F)cn3)c2)CC1`
[reply] 116

[ask] Give cell viability for the following compound: `COc1cc(C[C@@H](CO)[C@H](CO)Cc2ccc(O)c(OC)c2)ccc1O`
[reply] 126

[ask] # return recorded cell viability for entry `O=C(Nc1ccccc1)Nc1ccc(-c2ccc(C(=O)[C@@H]3CCC[C@H]3C(=O)O)cc2)cc1`
[reply] 99

====

Test system: NOMO1
Assay: cell viability relative to DMSO control; higher = less cytotoxic
Details: RPMI 5 mM glucose + 10% dialyzed FBS; 48 h; 0.0211 µM
cell viability by entry:
Quick note: give the figure in %, leave out the unit.

These solved cases illustrate the format of a correct answer.
CCOc1ccccc1N/N=C1/C(=O)N(c2nc(-c3ccccc3)cs2)N=C1C; 122
Cc1ccc(C(=O)Nc2ccc([S+](=O)([O-])O)c3cc([S+](=O)([O-])O)cc([S+](=O)([O-])O)c23)cc1NC(=O)c1cccc(NC(=O)Nc2cccc(C(=O)Nc3cc(C(=O)Nc4ccc([S+](=O)([O-])O)c5cc([S+](=O)([O-])O)cc([S+](=O)([O-])O)c45)ccc3C)c2)c1; 101
CC1(C)CCC(C)(C)c2cc(NC(=O)c3ccc(C(=O)O)cc3)ccc21; 89.8
Cc1nnc(C(C)C)n1[C@@H]1C[C@H]2CC[C@@H](C1)N2CC[C@H](NC(=O)C1CCC(F)(F)CC1)c1ccccc1; 84.8
OC[C@H]1OC(O)C[C@@H](O)[C@@H]1O (stereo partly drawn); 125

[ask] Answer with reported cell viability of `C[C@]12CC[C@H]3[C@@H](CC[C@@]45O[C@@H]4C(O)=C(C#N)C[C@]35C)[C@@H]1CC[C@@H]2O`
[reply] 132

[ask] Tell me its cell viability given `CO[C@H]1C[C@@H]2CC[C@@H](C)[C@@](O)(O2)C(=O)C(=O)N2CCCC[C@H]2C(=O)O[C@H]([C@@H](C)C[C@@H]2CC[C@@H](O)[C@H](OC)C2)CC(=O)[C@H](C)/C=C(\C)[C@@H](O)[C@@H](OC)C(=O)[C@H](C)C[C@H](C)/C=C/C=C/C=C/1C` as the entry.
[reply] 106

[ask] Output cell viability of `COc1c(N2C[C@@H]3CCCN[C@@H]3C2)c(F)cc2c(=O)c(C(=O)O)cn(C3CC3)c12.Cl.O`
[reply] 106
